MEASURED ON: UniProtKB Q9Y251
Sequence (Q9Y251 158-543 limits assumed): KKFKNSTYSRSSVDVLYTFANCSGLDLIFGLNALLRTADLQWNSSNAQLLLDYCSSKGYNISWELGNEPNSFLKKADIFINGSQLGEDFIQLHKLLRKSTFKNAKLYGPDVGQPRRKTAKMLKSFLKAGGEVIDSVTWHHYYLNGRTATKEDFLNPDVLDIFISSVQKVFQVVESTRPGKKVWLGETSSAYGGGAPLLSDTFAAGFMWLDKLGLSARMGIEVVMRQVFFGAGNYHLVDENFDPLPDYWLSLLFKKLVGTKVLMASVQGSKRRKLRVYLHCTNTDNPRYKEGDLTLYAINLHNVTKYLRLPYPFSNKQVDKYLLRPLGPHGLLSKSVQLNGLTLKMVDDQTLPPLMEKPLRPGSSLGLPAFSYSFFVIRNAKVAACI
Sequence (Q9Y251 36-109 limits assumed): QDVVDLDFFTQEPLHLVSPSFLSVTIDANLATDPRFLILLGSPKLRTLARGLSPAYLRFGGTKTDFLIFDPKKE
pIC50: −log10 of the molar value.

STRUCTURE AS SMILES: O=C(Cc1ccc2[nH]c(-c3ccc(NC(=O)Nc4ccc(-c5nc6cc(CC(=O)NCB(O)O)ccc6[nH]5)cc4F)c(F)c3)nc2c1)NCB(O)O
pIC50: 4.70 to 6.00
//
STRUCTURE AS SMILES: O=C(O)Cc1ccc2oc(-c3ccc(NC(=S)Nc4ccc(-c5nc6cc(CC(=O)O)ccc6o5)cc4F)c(F)c3)nc2c1
pIC50: 4.70 to 6.00
//
STRUCTURE AS SMILES: O=C(O)CNC(=O)Cc1ccc2[nH]c(-c3ccc(NC(=O)Nc4ccc(-c5nc6cc(CC(=O)NCC(=O)O)ccc6[nH]5)cc4F)c(F)c3)nc2c1
pIC50: 4.70 to 6.00
//
STRUCTURE AS SMILES: O=C(O)Cc1ccc2[nH]c(-c3ccc(NC(=O)Nc4ccc(-c5nc6cc(CC(=O)O)ccc6[nH]5)cc4F)c(F)c3)nc2c1
pIC50: 6.00 to 6.30
